# System: antibodies in sera from SARS patients (sera 1a, 1b, 2, 6, 37, 62, London, SARS-yellow, SARS-green)
# Format: binding, human
Listing of entries alongside the reported Binding of serum 1a to linear peptides of protein X4 of SARS-CoV Urbani.
endpoint: Binding of serum 1a to linear peptides of protein X4 of SARS-CoV Urbani

> print(dat)
   sequence.record  readout.value
1  IILFLTLIVFTSCEL            0.8
2  TLIVFTSCELYHYQE            0.8
3  SPLFLIVAALVFLIL            0.6

---

# Test system: antibodies in sera from SARS patients (sera 1a, 1b, 2, 6, 37, 62, London, SARS-yellow, SARS-green)
# Format: binding, human
endpoint: Binding of serum 1b to linear peptides of protein X1 of SARS-CoV Urbani

> print(dat)
    sequence.record  readout.value
 1  EGDGISTPKLKEDYQ            0.3
 2  KGFQFICNLLLLFVT            0.5
 3  FMRFFTLGSITAQPV            0.6
 4  LLYDANYFVCWHTHN            0.7
 5  HLLLVAAGMEAQFLY            0.7
 6  VVVHGYFTEVYYQLE            0.6
 7  SKNPLLYDANYFVCW            0.5
 8  VIGVAFLAVFQSATK            0.4
 9  DYVVVHGYFTEVYYQ            0.5
10  QIHTIDGSSGVANPA            0.5
11  LQASLPFGWLVIGVA            0.6
12  FQFICNLLLLFVTIY            0.5
13  LIYFLQCINACRIIM            0.6
14  LYKGFQFICNLLLLF            0.5
15  TTDTGIENATFFIFN            0.5
16  HGYFTEVYYQLESTQ            0.4
17  IPLQASLPFGWLVIG            0.6
18  AQFLYLYALIYFLQC            0.5
19  IHTIDGSSGVANPAM            0.7
20  SVTDTIVVTEGDGIS            0.5
21  WQLALYKGFQFICNL            0.2
